# protocol-text: Plasma stability (37° C., pH 7.4), human
# Assay type: in vitro ADME
# condition: human plasma, test article 1 μM, 37° C., pH 7.4, 60 min
Measured % Remaining of Initial (n = 1), 60 min, listed per entry.
Report the figure in % without appending any unit label.

CCCCCCCCCCCCCCCC(=O)NCCOC(=O)CCC	84

-- ask Sample CCCCCCCCCCCCCCCC(=O)NCCOC(=O)CCC(=O)OCC(COC(=O)CCCCCCC)OC(=O)CCCCCCC (stereo not drawn) [Compound I-3, PEA-Succinate-Glycerol-Di-Caprylic] — what was its % Remaining of Initial (n = 1), 60 min?
-- reply 65
